Would you mind telling me the reported YAP1 (% UTC) of each entry?
# Tested on: Yap1 mRNA
# assay-procedure: Antisense inhibition of human Yap1 in A-431 cells by cEt gapmers, single dose (Example 4, RTS4814)
# Type: cell-based
# cond: Yap1 mRNA remaining as percent of untreated control; 3-10-3 cEt gapmers; A-431 cells; Table 37
Strand notation (5' to 3'): a small letter for the sugar, then the base; units joined by * are phosphorothioate-linked, units joined directly phosphodiester-linked; [ ] holds rarer units or linkages, { } end groups; capitals alone tell only the bases. k = constrained ethyl (cEt); [5mC] = 5-methylcytosine; d = 2'-deoxy (DNA)
Give the value, in units of % UTC, as a plain number.

Sample 1075543 (kA*kT*kA*dT*dA*dT*dT*dA*dG*dG*dA*dG*dT*kT*kT*k[5mC]; antisense) [compound 1075543] ; YAP1 (% UTC) observed: 22

Sample 1074167 (antisense k[5mC]*kG*k[5mC]*dA*d[5mC]*d[5mC]*d[5mC]*d[5mC]*d[5mC]*dT*dG*dA*d[5mC]*k[5mC]*k[5mC]*kA) [compound 1074167] ; YAP1 (% UTC) observed: 58

Sample 1076503 (kA*kA*kT*dT*dA*d[5mC]*d[5mC]*d[5mC]*d[5mC]*dT*dG*dT*dG*kA*kG*kG; antisense) [compound 1076503] ; YAP1 (% UTC) observed: 77

Sample 1075575 (antisense kT*kT*kA*d[5mC]*dA*dA*d[5mC]*dA*d[5mC]*dA*dA*dG*dT*k[5mC]*kT*kA) [compound 1075575] ; YAP1 (% UTC) observed: 55

Sample 1076215 (kT*kT*kA*dT*dA*dA*d[5mC]*dA*dG*dA*d[5mC]*dT*dG*kG*k[5mC]*kT; antisense) [compound 1076215] ; YAP1 (% UTC) observed: 47

Sample 1074391 (kG*kT*k[5mC]*dA*dG*dA*dA*d[5mC]*dT*d[5mC]*dA*dA*dA*kG*k[5mC]*kT; antisense) [compound 1074391] ; YAP1 (% UTC) observed: 14

----------
# assay-procedure: Tolerability in Sprague-Dawley rats, body and organ weights (Example 22)
# Format: in vivo
# cond: male Sprague-Dawley rats, 50 mg/kg s.c. weekly for 6 weeks (7 doses), terminal, prior to necropsy
value-kind: body weight (g)
Give the value, in units of g, as a plain number.

Sample 1198728 (TATTAGAGTATGTGGC; modified gapmer, further chemistry not given here) [compound 1198728] ; body weight observed: 381

Sample 1198623 (CTAAGTAAGGTTTCCC; modified gapmer, further chemistry not given here) [compound 1198623] ; body weight observed: 472

Sample 1198831 (CACTTTTACATTAGGA; chemically modified gapmer, further chemistry not given here) [compound 1198831] ; body weight observed: 426

Sample 1197270 (TTAAAGTGTATGTCAG; cEt gapmer with 2'-OMe nucleoside, phosphorothioate, further chemistry not given here) [compound 1197270] ; body weight observed: 374

Sample 1198605 (GTAATATTGCAATCTG; modified gapmer, further chemistry not given here) [compound 1198605] ; body weight observed: 372

Sample 1198872 (TGTATGTCAGAAGAGT; chemically modified gapmer, further chemistry not given here) [compound 1198872] ; body weight observed: 417
